- Test system: MOLT-4 leukemia
- ASSAY: NCI tumour cell line growth inhibition, 48 h
OBSERVATION TYPE: TGI

Below, each entry is followed by its recorded TGI result.
COMPOUND	RESULT
C=C(CCCO)[C@@H]1CC[C@@](C)(O)[C@H]1C	> 100 µM
C=CCCCCCCCCC(=O)O	265 µM
C[Si](C)(C)C(Sc1ccccc1)(Sc1ccccc1)Sc1ccccc1	> 100 µM
COc1ccc(OC)c(/C=C/c2nc(SCc3ccccc3)n(-c3ccc(Cl)cc3)n2)c1	> 100 µM
O=C1NC(c2cccc(OCc3ccccc3)c2)Nc2ccccc21 (stereo not given)	2.77 µM
CCN1CCC(O)(c2ccc(O)cc2)C(C(=O)c2ccc(O)cc2)C1 (stereo not given)	46 µM
CN(CCCn1ccnc1[N+](=O)[O-])CCCn1ccnc1[N+](=O)[O-]	> 100 µM
COc1cc(C=O)cc(O)c1O	> 100 µM

Query the reported TGI for MOLT-4 leukemia; item: Cc1ccc(S(=O)(=O)N2CCc3ccc(O)c4c3C2Cc2ccc3c(c2-4)OCO3)cc1 (stereo not given) 20.3 µM

O=c1ccnc2ccc3n[nH][nH]c3c12 , same question. > 100 µM

Now the same for NC(Cc1ccc(B(O)O)cc1)C(=O)NC(CO)CO (stereo not given) > 100 µM

Note, next up: Cn1c2ccccc2c2c(=O)n(CCCC(=O)OC(=NC3CCCCC3)NC3CCCCC3)c3c(-c4ccccc4)nnn3c21 > 100 µM

Now consider C/C(Cc1ccc2c(c1)OCO2)=N\NC(=O)C(C)Sc1nnc(SC(C)C(=O)N/N=C(\C)Cc2ccc3c(c2)OCO3)s1 (stereo not given) and answer again. > 100 µM

One more compound: N#CC1C(=O)NC(c2ccccc2[N+](=O)[O-])c2sc3c(F)cccc3c21 (stereo not given) > 73 µM

// same read-out, input: CC1C2CC=CC(=O)[C@@]2(C)CCC12OCCO2 (stereo not given in full) > 100 µM

Follow-up item: CCc1cccc(C)c1NC(=S)NC(=O)c1ccccc1C(=O)NC(=S)Nc1c(C)cccc1CC > 100 µM

Same thing, different compound: COC(=O)C1=NN2c3ccccc3CN([C@@H](C)c3ccccc3)C(=O)[C@@H]2[C@H]1c1ccccc1 > 100 µM

----------
- Tested on: SK-OV-3 ovarian
- ASSAY: NCI tumour cell line growth inhibition, 48 h
OBSERVATION TYPE: TGI

Please review the entries below; each comes with its answer.
COMPOUND	MEASUREMENT TARGET	TGI
Cn1cnc([N+](=O)[O-])c1Sc1nccc(=O)[nH]1	SK-OV-3 ovarian	> 100 µM
O=C(C/C=C/c1ccccc1)c1ccccc1	SK-OV-3 ovarian	> 100 µM
CN(C(=O)c1ccc(OCCCC(=O)O)c(Cl)c1Cl)C1CCCC1	SK-OV-3 ovarian	> 100 µM
C=C(CCCO)[C@@H]1CC[C@@](C)(O)[C@H]1C	SK-OV-3 ovarian	> 100 µM

Hello, I am looking for reported TGI with SK-OV-3 ovarian for C[Si](C)(C)C(Sc1ccccc1)(Sc1ccccc1)Sc1ccccc1 . Could you help? > 100 µM

Queued: COc1cccc2c1C(=O)c1c(O)c3c(c(O)c1C2=O)C[C@@](O)(C(=O)CO)CC3OC1CC(NCCCC(OC(C)=O)OC(C)=O)C(O)C(C)O1 (stereo not given in full) > 1 µM

Next compound up: CCOC(=O)C(Cc1ccc(N(CCCl)CCCl)cc1)NC(=O)CCCN1C(=O)CN=C(c2ccccc2)c2cc(Cl)ccc21 (stereo not given) > 100 µM

These data points were gathered from PubChem BioAssay (NCI).
